Origin of the recorded values: PubChem BioAssay (NCI)

# System: HCT-15 colon
# Assay text: NCI tumour cell line growth inhibition, 48 h

>  <Compound>
C1COCCOCCOCCOCCO1.CC(=O)[CH-]C(C)=O.CC(=O)[CH-]C(C)=O.CC(=O)[CH-]C(C)=O.[V]

>  <TGI>
57.9 µM

$$$$
>  <Compound>
COc1cc2c(cc1OC)-c1cc3cc(OC)c(OC)cc3c(=O)n1CC2

>  <TGI>
> 100 µM

$$$$
>  <Compound>
CN1CCN(c2ccc(C(=O)Nc3cc(-c4cccc(NS(=O)(=O)c5ccccc5)c4)[nH]n3)cc2)CC1

>  <TGI>
39.2 µM

$$$$
>  <Compound>
COc1ccc2c(c1)/C(=C/c1cc(OC)c(OC)c(OC)c1)C(=O)N2C

>  <TGI>
> 35.6 µM

$$$$
>  <Compound>
CC1(O)CCC2(C#N)CCC1C2O (configuration not stated)

>  <TGI>
> 100 µM

$$$$
>  <Compound>
COc1cc(Nc2nc3ccc(C(F)(F)F)cc3nc2-c2ccccc2)cc(OC)c1OC

>  <TGI>
> 100 µM

$$$$
>  <Compound>
NNC(=O)/C(NC(=O)c1ccccc1)=C(\N)c1ccc(Cl)cc1

>  <TGI>
> 100 µM

$$$$
>  <Compound>
CC12CCC(C(Nc3ccccn3)C1=O)C2(C)C (configuration not stated)

>  <TGI>
> 100 µM

$$$$
>  <Compound>
N#Cc1ccc(Oc2nc3ccc(C(F)(F)F)cc3nc2-c2ccccc2)cc1

>  <TGI>
28.1 µM

$$$$
>  <Compound>
O=C(O)C1CCCCC1c1c2ccc(=O)cc-2oc2cc(O)ccc12 (configuration not stated)

>  <TGI>
> 100 µM

$$$$
>  <Compound>
O=[N+]([O-])c1c2nc3n(c2cc2c1nc1n2CCC1)CCC3

>  <TGI>
> 100 µM

$$$$
>  <Compound>
COC(=O)[C@H](Cc1ccccc1)NP(=O)(O)OCC1C=CC(n2cc(C)c(=O)[nH]c2=O)O1 (some centres not stated)

>  <TGI>
> 100 µM

$$$$
>  <Compound>
C=CCCCCCCCCCOC1C=CC(OC(C)=O)C(COC(C)=O)O1 (configuration not stated)

>  <TGI>
> 100 µM

$$$$
>  <Compound>
Oc1cccc(-c2cn3cc(C(F)(F)F)ccc3n2)c1

>  <TGI>
> 100 µM

$$$$
>  <Compound>
N#C/C(=C\c1ccc(Br)cc1)n1nnc2ccccc21

>  <TGI>
3.03 µM

$$$$
>  <Compound>
COc1ccc(OC)c2c(=S)c3ccccc3[nH]c12

>  <TGI>
> 92.5 µM

$$$$
>  <Compound>
O=c1c2ccccc2[nH]c2cc(O)cc(O)c12

>  <TGI>
> 100 µM

$$$$
>  <Compound>
CC(NC(=O)C(N)CC(=O)O)NC(=O)N(C)C(C)(C)C (configuration not stated)

>  <TGI>
> 100 µM

$$$$
>  <Compound>
CC[C@@]12C=CC(=S)N(CCSc3ccccc3)[C@@H]1c1c(n(S(=O)(=O)c3ccc(OC)cc3)c3ccccc13)CC2

>  <TGI>
> 100 µM

$$$$
>  <Compound>
c1ccc2nc(CCC3CCCCN3)ccc2c1 (configuration not stated)

>  <TGI>
> 100 µM

$$$$
>  <Compound>
N#CC1CC2(C(=O)C1=O)c1ccccc1-c1ccccc12 (configuration not stated)

>  <TGI>
> 100 µM

$$$$
>  <Compound>
O=C(/C=C/c1ccccc1Cl)c1ccc(Cl)cc1Cl

>  <TGI>
25.4 µM

$$$$
